For each entry below, report its FGFR3/FGFR4 value.
# STUDY SYSTEM: FGFR4 (Homo sapiens (Human), UniProt P22455)
# Sequence (P22455 22-802): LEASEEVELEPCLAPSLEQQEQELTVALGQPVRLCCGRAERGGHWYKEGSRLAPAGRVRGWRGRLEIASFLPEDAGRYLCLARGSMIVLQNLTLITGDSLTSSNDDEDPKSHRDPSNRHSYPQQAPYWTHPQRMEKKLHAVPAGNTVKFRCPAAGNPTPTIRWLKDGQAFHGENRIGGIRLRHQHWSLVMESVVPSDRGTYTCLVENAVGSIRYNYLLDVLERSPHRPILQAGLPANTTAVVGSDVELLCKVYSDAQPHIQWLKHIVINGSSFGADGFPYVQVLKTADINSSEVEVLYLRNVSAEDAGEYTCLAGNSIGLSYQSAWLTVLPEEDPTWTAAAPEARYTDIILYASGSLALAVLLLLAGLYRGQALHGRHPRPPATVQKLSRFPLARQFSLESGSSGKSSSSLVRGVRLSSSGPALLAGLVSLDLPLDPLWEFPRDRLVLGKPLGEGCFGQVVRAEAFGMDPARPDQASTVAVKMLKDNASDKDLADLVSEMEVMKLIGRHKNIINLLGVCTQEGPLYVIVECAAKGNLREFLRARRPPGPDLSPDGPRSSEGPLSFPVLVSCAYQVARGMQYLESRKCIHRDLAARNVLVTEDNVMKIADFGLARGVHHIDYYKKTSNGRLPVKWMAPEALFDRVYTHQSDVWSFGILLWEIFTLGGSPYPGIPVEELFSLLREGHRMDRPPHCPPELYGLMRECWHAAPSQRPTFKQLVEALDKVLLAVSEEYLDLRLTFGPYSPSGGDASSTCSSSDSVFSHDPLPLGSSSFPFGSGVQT
# EXPERIMENT NOTES: FGFR Enzymatic Assay (peptide phosphorylation, FRET), FGFR4
# Assay type: biochemical
# TEST CONTEXT: IC50 ratio showing FGFR4 selectivity; pre-incubated for 4 hours
# Protocol: The inhibitor potency of the exemplified compounds was measured in an enzyme assay that measures peptide phosphorylation using FRET measurements to detect product formation. Inhibitors were serially diluted in DMSO and a volume of 0.5 μL was transferred to the wells of a 384-well plate. The enzymes were purchased from Millipore or Invitrogen. GraphPad prism3 was used to analyze the data.

Task: Dear colleague, please send me the reported FGFR3/FGFR4 for COc1cc(OC)c(F)c(N2Cc3cnc(-c4nn(CC#N)cc4C#N)cc3C3(CC3)C2=O)c1F when you can.
Output: >25

Task: Note down FGFR3/FGFR4 recorded for COc1cc(OC)c(F)c(N2Cc3cnc(-c4cncc(CN5CCOCC5)c4)cc3C3(CC3)C2=O)c1F
Output: >10

Task: Report measured FGFR3/FGFR4; entry is COc1cc(OC)c(F)c(N2Cc3cnc(-c4cncc(-n5ccnc5)c4)cc3C3(CC3)C2=O)c1F
Output: >10

Task: Report FGFR3/FGFR4, nothing else, for this molecule: COc1cc(OC)c(F)c(N2Cc3cnc(-c4cncc(C#N)c4)cc3C3(CC3)C2=O)c1F
Output: >10

Task: // Input: COc1cc(OC)c(F)c(N2Cc3cnc(-c4cc(N)c(F)cc4C)cc3C3(CC3)C2=O)c1F . Output its FGFR3/FGFR4 only.
Output: >10

Task: For the molecule COc1cc(OC)c(F)c(N2Cc3cnc(-c4cccnc4)cc3C3(CC3)C2=O)c1F , give its reported FGFR3/FGFR4.
Output: >1

Task: Specify reported FGFR3/FGFR4 for the molecule shown: COc1cncc(-c2cc3c(cn2)CN(c2c(F)c(OC)cc(OC)c2F)C(=O)C32CC2)c1
Output: >10

Task: Consider the molecule COc1cc(OC)c(F)c(N2Cc3cnc(-c4cncc(F)c4)cc3C3(CC3)C2=O)c1F and give its recorded FGFR3/FGFR4.
Output: >1

###

# STUDY SYSTEM: FGFR3 enzyme (Homo sapiens (Human))
# Sequence (P22607 23-806): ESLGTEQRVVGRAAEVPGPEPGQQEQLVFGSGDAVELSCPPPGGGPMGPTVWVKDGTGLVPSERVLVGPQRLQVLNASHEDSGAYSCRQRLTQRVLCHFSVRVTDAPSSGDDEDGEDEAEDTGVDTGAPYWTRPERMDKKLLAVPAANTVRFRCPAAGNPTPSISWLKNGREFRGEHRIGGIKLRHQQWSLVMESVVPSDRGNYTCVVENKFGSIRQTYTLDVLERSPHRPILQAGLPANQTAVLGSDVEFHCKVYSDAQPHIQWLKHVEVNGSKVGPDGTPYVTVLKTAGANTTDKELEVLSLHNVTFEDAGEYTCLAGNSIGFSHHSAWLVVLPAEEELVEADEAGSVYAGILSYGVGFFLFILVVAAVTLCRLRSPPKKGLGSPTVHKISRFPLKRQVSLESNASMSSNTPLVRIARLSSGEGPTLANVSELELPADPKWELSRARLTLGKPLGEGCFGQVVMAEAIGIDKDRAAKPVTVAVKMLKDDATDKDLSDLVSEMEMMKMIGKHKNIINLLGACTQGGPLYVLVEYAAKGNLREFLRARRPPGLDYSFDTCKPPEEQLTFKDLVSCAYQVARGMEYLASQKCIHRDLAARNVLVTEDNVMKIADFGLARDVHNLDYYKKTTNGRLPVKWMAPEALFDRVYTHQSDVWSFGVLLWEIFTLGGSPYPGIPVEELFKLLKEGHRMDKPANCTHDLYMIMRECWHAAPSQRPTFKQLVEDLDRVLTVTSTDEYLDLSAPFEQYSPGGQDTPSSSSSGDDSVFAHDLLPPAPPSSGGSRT
# EXPERIMENT NOTES: FGFR Enzymatic Assay (peptide phosphorylation, FRET), FGFR3
# Format: biochemical
# TEST CONTEXT: IC50 ratio showing FGFR3 selectivity; pre-incubated for 4 hours
MEASUREMENT TYPE: FGFR4/FGFR3

Task: Kindly indicate its recorded FGFR4/FGFR3. Item: COc1cc(OC)c(F)c(N2Cc3cnc(-c4cn(C)nc4C)cc3N(c3ccn(C)n3)C2=O)c1F [Example 100]
Output: >5

Task: Quote FGFR4/FGFR3 reported for COc1cc(OC)c(F)c(N2Cc3cnc(-c4cn(C)nc4C)cc3N(c3cccc(-c4cnnn4C)c3)C2=O)c1F [Example 89] please.
Output: >10

Task: Provide measured FGFR4/FGFR3 value, entry: COc1cc(OC)c(F)c(N2Cc3cnc(-c4cn(C)nc4C)cc3N(Cc3cnn(C)c3C)C2=O)c1F [Example 48]
Output: >10

Task: Input COc1cc(OC)c(F)c(N2Cc3cnc(-c4cn(C)nc4C)cc3N(Cc3ccc4c(c3)OCCO4)C2=O)c1F [Example 38] , output reported FGFR4/FGFR3.
Output: >5

Task: Please give measured FGFR4/FGFR3 of the following entry: COc1cc(OC)c(F)c(N2Cc3cnc(-c4cnn(C5(CC#N)CN(C(C)=O)C5)c4)cc3C3(CC3)C2=O)c1F [Example 56]
Output: >1

Task: Dear colleague, please send me the reported FGFR4/FGFR3 for COc1cc(OC)c(F)c(N2Cc3cnc(-c4cn(C)nc4C)cc3N(c3ccc4ncsc4c3)C2=O)c1F [Example 41] when you can.
Output: >5

Task: Give the value of FGFR4/FGFR3 reported for the following: COc1cc(OC)c(F)c(N2Cc3cnc(-c4ccc(C5(C#N)CCC5)nc4)cc3N(Cc3nnc(C)o3)C2=O)c1F [Example 187]
Output: >10
